// provenance: the supplement of paper PMC10567573

Assignment: determine reported protein stability index for the given sequences.
protocol: protein stability index of a GFP-peptide fusion (GPS, HEK-293T) (PSI 1-6); higher = more stable;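 note: 24-mer peptide tiles fused after GFP, lentivirally expressed, FACS-sorted into six equal bins by GFP/DsRed ratio, decoded by Illumina sequencing, PSI is the read-weighted mean bin number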
assayContext: treatment: DMSO; c terminus: a fixed tail appended

Record summary for LSGVDLELVGSGYRMSLVKRRFAT [FCHO1] : reported protein stability index = 2.33

Record summary for RNNANGVDLNRNFPDLNTYIYYNE [CPN1] : reported protein stability index = 3.17

Record summary for AGGAGRGEDEENREHRVRRIHVRR [KCTD13] : reported protein stability index = 5.19

Record summary for SEAWEYFHLAPARAGHHPNQYATC [ZBED2] : reported protein stability index = 2.59

Record summary for FPYEYSYGLQGGMAFLDKRLQVKE [ATL3] : reported protein stability index = 2.53

Record summary for EWVLSTGQDKQFAWHCSESGQRLG [WDFY2] : reported protein stability index = 3.21

Record summary for RLSGAGPAEEAGPEGGLEEPDALD [FOXJ1] : reported protein stability index = 5.51

Record summary for LEGQSGVTIKHVACGDFFTACLTD [NEK8] : reported protein stability index = 2.75

Record summary for LLKKKPPQQQHHKAKRNRTCRPPS [ANKRD17] : reported protein stability index = 3.93

Record summary for KKRVSMILQSPAFCEELESMIQEQ [ADD1] : reported protein stability index = 3.58

Record summary for IQQTTRYFSTPQTMDLFLNYSMNM [NANOGP8] : reported protein stability index = 2.7

Record summary for NASFIDGYRQQKAYIATQGPLAET [PTPRD] : reported protein stability index = 3.46

Record summary for LKRPVNVPFDIFTEEVKFYQLGEE [KCNA4] : reported protein stability index = 3.01

Record summary for ACMMTITFLPYTFSLMVTFPDVPL [TMEM175] : reported protein stability index = 3.1

Record summary for HRERVAMHYQMSVTLKYEIKKLIY [JAGN1] : reported protein stability index = 2.71

Record summary for RRSSLVITTKIFWGGKAETERGLS [KCNAB2] : reported protein stability index = 2.09

Record summary for VLEVRTENLKQQRSRREQFSRAPV [STX5] : reported protein stability index = 3.4

Record summary for MKLFLDCLKEFPEKQELHRNMLGL [ZER1] : reported protein stability index = 2.35

Record summary for ETLLGDPKRRMRYFDPLRNEYFFD [KCNA3] : reported protein stability index = 2.58

Record summary for MMHDQRTGPAWNVLMWTMLFLGQG [SOAT2] : reported protein stability index = 2.8

Record summary for FRLETLAGLRSRRLKQPKAFCLRD [MIR22HG] : reported protein stability index = 2.52

Record summary for GFLQALSLAVDKQFEERKKLAAYI [TRIP13] : reported protein stability index = 3.35

Record summary for VALLRAHAGEHLLLGATKRSMVFK [HNF4A] : reported protein stability index = 2.27

Record summary for CPVVRNGSVAVVEAECEKSSATTY [SLC6A17] : reported protein stability index = 4.64

Record summary for EPGRLGSSSPASVTTEQLGAKMTE [PXN] : reported protein stability index = 5.2

Record summary for MAGAATGSRTPGRSELVEGCGWRC [TRIM14] : reported protein stability index = 3.46

Record summary for LANSWNCLPKHLLHSVNQRFGSNN [KLHDC2] : reported protein stability index = 2.43
